Recorded GI50 by entry
test system: OVCAR-4; experiment: NCI tumour cell line growth inhibition, 48 h
Active and inactive are the calls of the source. Rule as the data show it: active = GI50 up to about 1.1 µM and inactive = higher.

Example compounds with recorded GI50:
Ask | # lookup: GI50 of OC1c2ccccc2C(O)C2OC12 (stereo unspecified)
Reply | > 100 µM (inactive)

Ask | # lookup: GI50 of CCCOP1(=O)C=C(O)C(Cl)=C(C)C1 (stereo unspecified)
Reply | > 100 µM (inactive)

Ask | # lookup: GI50 of `O=c1cc(N2CCOCC2)[nH]c(=O)n1-c1cccc(Cl)c1`
Reply | > 100 µM (inactive)

Ask | # lookup: GI50 of `O=C(N[C@@H]1C=CCC[C@@H]1c1ccccc1)OCc1ccccc1`
Reply | 18.6 µM (inactive)

Ask | # lookup: GI50 of NC(C(=O)O)c1ccc(C(=O)O)cc1 (stereo unspecified)
Reply | > 100 µM (inactive)

// moving on: another record for GI50
Ask | # lookup: GI50 of `CCN(CC)CCOc1ccc(N2C(=O)c3cccc4cc([N+](=O)[O-])cc(c34)C2=O)cc1`
Reply | 16.3 µM (inactive)

* * *

system: OVCAR-8; test: NCI tumour cell line growth inhibition, 48 h
Calls of active or inactive are those of the source. Rule as the data show it: active = GI50 up to about 1.1 µM and inactive = higher.
Allowed answers: true for active, false for inactive

Ask | Hi, sorry to bother you, what did the test record for Clc1ccc2c(c1)CC1C[N+]3=C(CCCC3)C1=C2 (stereo not given) ?
Reply | false

***
Ask | Hi, sorry to bother you, what did the test record for `COC(=O)c1ccc(NC(=O)c2cc(OC)c(OC)c(OC)c2)cc1` ?
Reply | false

Ask | Hi, sorry to bother you, what did the test record for `O=c1cc(N2CCOCC2)[nH]c(=O)n1-c1cccc(Cl)c1` ?
Reply | false

Ask | Hi, sorry to bother you, what did the test record for `COc1cc(C)cc(OC)c1/C=C/C(=O)O` ?
Reply | false

Ask | Hi, sorry to bother you, what did the test record for COc1cc(C2c3cc4c(cc3OC(NNC(N)=O)C2C)OCO4)cc(OC)c1OC (stereo not given) ?
Reply | true

Ask | Hi, sorry to bother you, what did the test record for Cc1ccc(S(=O)(=O)NC(=O)NC(CCCCNC(=N)N)C(=O)O)cc1 (stereo not given) ?
Reply | false

Ask | Hi, sorry to bother you, what did the test record for `O=C(CCc1cc(-c2ccccc2)nc(S)n1)N(Cc1ccccc1)Cc1ccccc1` ?
Reply | false

Ask | Hi, sorry to bother you, what did the test record for `S=P1(N2CCCCC2)Oc2ccc3ccccc3c2-c2c(ccc3ccccc23)O1` ?
Reply | false

Ask | Hi, sorry to bother you, what did the test record for `NC(=O)CN1CCN(c2nc(N3CCCC3)c3nc(Cl)c(NCc4ccccc4)nc3n2)CC1` ?
Reply | false

Ask | Hi, sorry to bother you, what did the test record for CCN1CCC(O)(/C=C/c2ccc(C)cc2C)C(C(=O)/C=C/c2ccc(C)cc2C)C1 (stereo not given) ?
Reply | false

* * *

tested on: OVCAR-5; test: NCI tumour cell line growth inhibition, 48 h
Calls of active or inactive are those of the source. Cut-off read from the data, not from the text of the source: active = GI50 up to about 1.1 µM and inactive = higher. Where a SMILES comes first, the peptide text is derived from it. The star is where a group is joined. Boc = CC(C)(C)OC(=O)*
Experimental readout: GI50

Ask | # lookup: GI50 of `COc1ccc(N(C)C(=O)N(C)c2ccc([N+](=O)[O-])cc2)cc1`
Reply | 39.9 µM (inactive)

Ask | # lookup: GI50 of CCOC(=O)C(NC(=O)c1ccccc1)(Nc1ccc(Cl)cc1C(F)(F)F)C(F)(F)F (stereo not given)
Reply | 13.5 µM (inactive)

***
Ask | # lookup: GI50 of COC(=O)[C@H](Cc1ccc(O)cc1)NC(=O)[C@H](Cc1ccc(O)cc1)NC(=O)OC(C)(C)C (Boc-Tyr-Tyr-OMe)
Reply | > 100 µM (inactive)

Ask | # lookup: GI50 of `O=S(=O)([N-]c1nc2ccccc2nc1-[n+]1ccccc1)c1ccccc1`
Reply | > 100 µM (inactive)

Ask | # lookup: GI50 of `COc1cc(/C=C(\NC(=O)c2ccccc2)c2nc3cncnc3[nH]2)cc(OC)c1OC`
Reply | > 100 µM (inactive)

* * *

system: PC-3; test: NCI tumour cell line growth inhibition, 48 h
Activity calls are given as the source filed them. Rule as the data show it: active = GI50 up to about 1.1 µM and inactive = higher. Non-standard residues stand in square brackets, D forms with d. Residues, ends and D or L forms follow the SMILES beside them. *: point of attachment. Cbz = O=C(OCc1ccccc1)*; Boc = CC(C)(C)OC(=O)*; Aib = CC(C)(N)C(=O)O; OBn = c1ccc(CO*)cc1; OtBu = CC(C)(C)O*; βAla = NCCC(=O)O
Allowed answers: 1.0 for active, 0.0 for inactive

Answered examples (5):
Ask | Hi, sorry to bother you, what did the test record for Cc1cc(OP2(=O)NCc3ccncc3O2)ccc1Cl (stereo not drawn) ?
Reply | 0.0

Ask | Hi, sorry to bother you, what did the test record for CCCCCCCCCCCC(=O)OCC(C[As](=O)(O)O)OC(=O)CCCCCCCCCCC (stereo not drawn) ?
Reply | 0.0

Ask | Hi, sorry to bother you, what did the test record for `CC[C@H]1C=CCC[C@@]2(C[C@@H]3CC[C@@H]4[C@H](C(=O)OCCCCCCCCCCCCCCCC(=O)N(CCCN)CCCCN)[C@]5(CCC[C@@H](C)O5)NC(=[N+]34)N2)O1` ?
Reply | 1.0

Ask | Hi, sorry to bother you, what did the test record for CC[C@]12C=CCN3CCC4(c5cc([C@@]6(C(=O)OC)CC7CN(CCc8c6[nH]c6ccccc86)CC6CCCCC67)c(OC)cc5N(C)C4[C@](O)(C(=O)OC)C1OC(C)=O)[C@@H]32 (stereo partly drawn) ?
Reply | 1.0

Ask | Hi, sorry to bother you, what did the test record for Nc1ncc(/C=N/O)c(NCC2(CO)CC(CCc3ccccc3)C2)n1 (stereo not drawn) ?
Reply | 0.0

***
Ask | Hi, sorry to bother you, what did the test record for CC12CCC(C(Nc3cc(C(F)(F)F)cc(C(F)(F)F)c3)C1=O)C2(C)C (stereo not drawn) ?
Reply | 0.0

Ask | Hi, sorry to bother you, what did the test record for `COc1ccc(OC)c2c(Nc3ccc(S(=O)(=O)O)c4cc(S(=O)(=O)O)cc(S(=O)(=O)O)c34)cc(C)nc12` ?
Reply | 0.0

Ask | Hi, sorry to bother you, what did the test record for CC(C)(C)OC(=O)CC(NC(=O)OC(C)(C)C)C(=O)NC(CCCCNC(=O)OCc1ccccc1)C(=O)NC(C)(C)C(=O)NCCC(=O)OCc1ccccc1 (stereo not drawn) (Boc-D(OtBu)K(Cbz)[Aib][βAla]-OBn; configuration not given here) ?
Reply | 0.0

* * *

system: ACHN; experiment: NCI tumour cell line growth inhibition, 48 h
Calls of active or inactive are those of the source. No stated cut-off is given here; in the data, active = GI50 up to about 1.1 µM and inactive = higher. Where a SMILES comes first, the peptide text is derived from it. The star is where a group is joined. Boc = CC(C)(C)OC(=O)*
Allowed answers: active, inactive

Ask | Hi, sorry to bother you, what did the test record for COC(=O)[C@H](Cc1ccc(O)cc1)NC(=O)[C@H](Cc1ccc(O)cc1)NC(=O)OC(C)(C)C (Boc-Tyr-Tyr-OMe) ?
Reply | inactive

Ask | Hi, sorry to bother you, what did the test record for CN(C)/N=C(/c1nc2ccc(Cl)cc2nc1O)C(O)c1ccc(C(O)/C(=N\N(C)C)c2nc3ccc(Cl)cc3nc2O)cc1 (stereo not given) ?
Reply | inactive

Ask | Hi, sorry to bother you, what did the test record for COc1ccc(C(OCC2OC(n3cc(C)c(=O)[nH]c3=O)CC2n2cc(Cn3cc(F)c(=O)[nH]c3=O)nn2)(c2ccccc2)c2ccccc2)cc1 (stereo not given) ?
Reply | inactive

Ask | Hi, sorry to bother you, what did the test record for `COC(=O)C1=C(C)NC(C)=C(C(=O)OC)C1c1cccc(NO)c1` ?
Reply | inactive

Ask | Hi, sorry to bother you, what did the test record for CCN1CCC(O)(/C=C/c2ccc(C)cc2C)C(C(=O)/C=C/c2ccc(C)cc2C)C1 (stereo not given) ?
Reply | inactive

***
Ask | Hi, sorry to bother you, what did the test record for Clc1ccc2c(c1)CC1C[N+]3=C(CCCC3)C1=C2 (stereo not given) ?
Reply | inactive

Ask | Hi, sorry to bother you, what did the test record for CCC1NC(=O)C1NC(=O)OC (stereo not given) ?
Reply | inactive

Ask | Hi, sorry to bother you, what did the test record for `CCN(CC)CCCNc1c2c(Cl)cc(Cl)cc2nc2nc(O)nc(C)c12` ?
Reply | inactive

Ask | Hi, sorry to bother you, what did the test record for `CC(C)(CN1CCCCC1)C(=O)/C=C/c1c(Cl)cccc1Cl` ?
Reply | inactive

Ask | Hi, sorry to bother you, what did the test record for O=C(O)CC(Cc1ccccc1Cl)C(=O)O (stereo not given) ?
Reply | inactive

Ask | Hi, sorry to bother you, what did the test record for COc1ccc2c(c1)CCCN1Cc3ccccc3CC21 (stereo not given) ?
Reply | inactive
